Tested on: 935938-334-R-J1-PDC complex spheroid viability
Experiment: Anticancer human tumor 935938-334-R-J1-PDC patient-derived small intestine adenocarcinoma cell line growth inhibition [POLQ]
Conditions: second compound 1 µM; first compound 0.1 µM; stronger effect = lower value
assay_endpoint: viability, T/C (%)

compound	assay_endpoint	result_unit	readout_value
C=CC(=O)N1CCN(c2nc(=O)n(-c3c(C)ccnc3C(C)C)c3nc(-c4c(O)cccc4F)c(F)cc23)C(C)C1 (stereo not given) + COC1C(OC(N)=O)C(O)C(Oc2ccc3c(O)c(NC(=O)c4ccc(O)c(CC=C(C)C)c4)c(=O)oc3c2C)OC1(C)C	viability, T/C	%	86.4
C=CC(=O)N1CCN(c2nc(=O)n(-c3c(C)ccnc3C(C)C)c3nc(-c4c(O)cccc4F)c(F)cc23)C(C)C1 (stereo not given) + Cc1cccc(N(C)C(=O)C2C(O)CCN2c2nc(C)cc(C(F)(F)F)c2C#N)c1	viability, T/C	%	111
COc1cccc(OCCCN)c1-c1cc(Nc2cnc(C#N)cn2)n[nH]1 + Cc1cccc(N(C)C(=O)C2C(O)CCN2c2nc(C)cc(C(F)(F)F)c2C#N)c1	viability, T/C	%	28.5
CC1COCCN1c1cc(-c2ccnn2C)c2ccnc(-c3ccn[nH]3)c2n1 (stereo not given) + COC1C(OC(N)=O)C(O)C(Oc2ccc3c(O)c(NC(=O)c4ccc(O)c(CC=C(C)C)c4)c(=O)oc3c2C)OC1(C)C	viability, T/C	%	36.5
CC1COCCN1c1cc(C2(S(C)(=N)=O)CC2)nc(-c2ccnc3[nH]ccc23)n1 (stereo not given) + Cc1cccc(N(C)C(=O)C2C(O)CCN2c2nc(C)cc(C(F)(F)F)c2C#N)c1	viability, T/C	%	89

====

Catalogue of compounds with associated IC50
Test system: 935938-334-R-J1-PDC complex spheroid viability
Experiment: Anticancer human tumor 935938-334-R-J1-PDC cell line growth inhibition [POLQ];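 further: spheroids exposed to drugs for seven days before viability read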
Conditions: curve of first compound; second compound 0.316 µM

compound	measurement_qualifier	IC50 [nM]
CC1COCCN1c1cc(-c2ccnn2C)c2ccnc(-c3ccn[nH]3)c2n1 (stereo unspecified) + Cc1cccc(N(C)C(=O)C2C(O)CCN2c2nc(C)cc(C(F)(F)F)c2C#N)c1	=	107
CC(C)n1c(=O)n(C)c2cnc3cc(F)c(-c4ccc(OCCCN5CCCCC5)nc4)cc3c21 + Nc1ccc(C#CCN(C(=O)Cc2ncc(C(F)(F)F)cc2C(F)(F)F)c2ccc(F)cc2)nn1	>	10000
CC1COCCN1c1cc(C2(S(C)(=N)=O)CC2)nc(-c2ccnc3[nH]ccc23)n1 (stereo unspecified) + Cc1cccc(N(C)C(=O)C2C(O)CCN2c2nc(C)cc(C(F)(F)F)c2C#N)c1	=	2440
C#Cc1c(F)ccc2cc(O)cc(-c3ncc4c(N5CC6CCC(C5)N6)nc(OCC56CCCN5CC(F)C6)nc4c3F)c12 (stereo unspecified) + COC1C(OC(N)=O)C(O)C(Oc2ccc3c(O)c(NC(=O)c4ccc(O)c(CC=C(C)C)c4)c(=O)oc3c2C)OC1(C)C	=	1840
C=CCn1c(=O)c2cnc(Nc3ccc(N4CCN(C)CC4)cc3)nc2n1-c1cccc(C(C)(C)O)n1 + Cc1cccc(N(C)C(=O)C2C(O)CCN2c2nc(C)cc(C(F)(F)F)c2C#N)c1	=	513
CCc1cc2c(N3CCc4c(cc(Cn5ccnc5)cc4-c4cn(C)nc4C(F)(F)F)C3=O)ccnc2c(OC)n1 + Nc1ccc(C#CCN(C(=O)Cc2ncc(C(F)(F)F)cc2C(F)(F)F)c2ccc(F)cc2)nn1	>	10000
CC1COCCN1c1cc(-c2ccnn2C)c2ccnc(-c3ccn[nH]3)c2n1 (stereo unspecified) + COC1C(OC(N)=O)C(O)C(Oc2ccc3c(O)c(NC(=O)c4ccc(O)c(CC=C(C)C)c4)c(=O)oc3c2C)OC1(C)C	=	136
CNCc1ccc(-c2[nH]c3cc(F)cc4c3c2CCNC4=O)cc1 + Nc1ccc(C#CCN(C(=O)Cc2ncc(C(F)(F)F)cc2C(F)(F)F)c2ccc(F)cc2)nn1	>	10000
C=CC(=O)N1CCN(c2nc(=O)n(-c3c(C)ccnc3C(C)C)c3nc(-c4c(O)cccc4F)c(F)cc23)C(C)C1 (stereo unspecified) + Cc1cccc(N(C)C(=O)C2C(O)CCN2c2nc(C)cc(C(F)(F)F)c2C#N)c1	>	10000
CC[C@@]1(O)C(=O)OCc2c1cc1n(c2=O)Cc2cc3c(CN(C)C)c(O)ccc3nc2-1 + COC1C(OC(N)=O)C(O)C(Oc2ccc3c(O)c(NC(=O)c4ccc(O)c(CC=C(C)C)c4)c(=O)oc3c2C)OC1(C)C	=	93.3
O=C(Nc1ccc(O)c(NS(=O)(=O)c2ccc(F)cc2)c1)c1ccc(-c2ccccc2)cc1 + Nc1ccc(C#CCN(C(=O)Cc2ncc(C(F)(F)F)cc2C(F)(F)F)c2ccc(F)cc2)nn1	>	10000
O=c1[nH]cc(F)c(=O)[nH]1 + COC1C(OC(N)=O)C(O)C(Oc2ccc3c(O)c(NC(=O)c4ccc(O)c(CC=C(C)C)c4)c(=O)oc3c2C)OC1(C)C	=	4820
COc1cc2cc(C(=O)CCC(=O)O)sc2cc1OC + COC1C(OC(N)=O)C(O)C(Oc2ccc3c(O)c(NC(=O)c4ccc(O)c(CC=C(C)C)c4)c(=O)oc3c2C)OC1(C)C	>	10000
COc1ccc([C@@H](O)c2cc(-c3ncnc4cc(N5CCOCC5)ccc34)c(F)cc2Cl)nn1 + Cc1cccc(N(C)C(=O)C2C(O)CCN2c2nc(C)cc(C(F)(F)F)c2C#N)c1	=	3200
CC(C)n1c(=O)n(C)c2cnc3cc(F)c(-c4ccc(OCCCN5CCCCC5)nc4)cc3c21 + COC1C(OC(N)=O)C(O)C(Oc2ccc3c(O)c(NC(=O)c4ccc(O)c(CC=C(C)C)c4)c(=O)oc3c2C)OC1(C)C	>	10000
CCc1cc2c(N3CCc4c(cc(Cn5ccnc5)cc4-c4cn(C)nc4C(F)(F)F)C3=O)ccnc2c(OC)n1 + Cc1cccc(N(C)C(=O)C2C(O)CCN2c2nc(C)cc(C(F)(F)F)c2C#N)c1	>	10000
CC1COCCN1c1cc(-c2ccnn2C)c2ccnc(-c3ccn[nH]3)c2n1 (stereo unspecified) + Nc1ccc(C#CCN(C(=O)Cc2ncc(C(F)(F)F)cc2C(F)(F)F)c2ccc(F)cc2)nn1	=	86.2
COc1ccc([C@@H](O)c2cc(-c3ncnc4cc(N5CCOCC5)ccc34)c(F)cc2Cl)nn1 + Nc1ccc(C#CCN(C(=O)Cc2ncc(C(F)(F)F)cc2C(F)(F)F)c2ccc(F)cc2)nn1	=	5430
COc1cccc(OCCCN)c1-c1cc(Nc2cnc(C#N)cn2)n[nH]1 + Nc1ccc(C#CCN(C(=O)Cc2ncc(C(F)(F)F)cc2C(F)(F)F)c2ccc(F)cc2)nn1	=	31.7
COc1cc(C2c3cc4c(cc3C(OC3OC5COC(C)OC5C(O)C3O)C3COC(=O)C23)OCO4)cc(OC)c1O (stereo unspecified) + Nc1ccc(C#CCN(C(=O)Cc2ncc(C(F)(F)F)cc2C(F)(F)F)c2ccc(F)cc2)nn1	=	762
CCc1cc2c(N3CCc4c(cc(Cn5ccnc5)cc4-c4cn(C)nc4C(F)(F)F)C3=O)ccnc2c(OC)n1 + COC1C(OC(N)=O)C(O)C(Oc2ccc3c(O)c(NC(=O)c4ccc(O)c(CC=C(C)C)c4)c(=O)oc3c2C)OC1(C)C	>	10000
